- TEST TARGET: canine TRPM8 (Canis lupus familiaris, UniProt Q1A7N1)
- Sequence (Q1A7N1 1-1104): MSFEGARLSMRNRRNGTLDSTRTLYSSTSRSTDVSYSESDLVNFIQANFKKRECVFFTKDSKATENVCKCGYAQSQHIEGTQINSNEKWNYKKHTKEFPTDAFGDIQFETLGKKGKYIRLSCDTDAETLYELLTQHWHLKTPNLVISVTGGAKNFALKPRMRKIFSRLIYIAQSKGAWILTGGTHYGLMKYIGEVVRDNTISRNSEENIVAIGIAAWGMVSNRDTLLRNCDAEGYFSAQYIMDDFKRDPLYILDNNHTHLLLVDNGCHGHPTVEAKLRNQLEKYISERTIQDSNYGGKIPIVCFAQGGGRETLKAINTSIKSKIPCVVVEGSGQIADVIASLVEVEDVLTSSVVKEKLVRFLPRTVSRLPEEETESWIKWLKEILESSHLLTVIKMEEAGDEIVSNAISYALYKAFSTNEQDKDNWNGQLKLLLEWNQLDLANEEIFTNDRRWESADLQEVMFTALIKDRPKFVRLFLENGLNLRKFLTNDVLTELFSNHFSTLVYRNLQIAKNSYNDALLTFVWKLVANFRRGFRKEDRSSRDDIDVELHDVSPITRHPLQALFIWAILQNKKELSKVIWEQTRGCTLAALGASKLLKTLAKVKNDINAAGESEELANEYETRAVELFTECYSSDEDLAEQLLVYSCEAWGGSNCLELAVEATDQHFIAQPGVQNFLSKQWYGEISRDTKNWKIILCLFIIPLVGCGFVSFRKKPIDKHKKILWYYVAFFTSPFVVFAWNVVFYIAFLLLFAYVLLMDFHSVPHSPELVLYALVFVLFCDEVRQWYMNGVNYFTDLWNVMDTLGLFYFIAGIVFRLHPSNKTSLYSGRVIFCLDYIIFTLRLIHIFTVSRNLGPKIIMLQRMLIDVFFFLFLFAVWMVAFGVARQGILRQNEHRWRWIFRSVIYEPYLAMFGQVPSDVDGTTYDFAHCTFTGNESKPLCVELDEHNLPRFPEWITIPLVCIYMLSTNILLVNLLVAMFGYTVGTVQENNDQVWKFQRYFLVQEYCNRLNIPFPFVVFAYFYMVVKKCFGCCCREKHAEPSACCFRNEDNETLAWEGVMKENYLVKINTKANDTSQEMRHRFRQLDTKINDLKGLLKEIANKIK
- PROTOCOL SUMMARY: In Vitro Canine TRPM8 Functional Assay (Ca2+ fluorescence, icilin activation)
- Format: cell-based
- RECORDED CONDITIONS: compound at 0.2 μM; canine TRPM8, icilin activation; read-out: % Inh @ 0.2
EXPERIMENTAL ENDPOINT: inhibition at 0.2 µM (%)

| COMPOUND | VAL |
| --- | --- |
| Cc1c(N(CCN2CCCCC2)S(=O)(=O)c2ccccc2)sc2ccccc12 | 98 |
| Cc1c(N(CC2CCCN2C(=O)OC(C)(C)C)S(=O)(=O)c2ccccc2)sc2ccccc12 (centres unmarked) | 80 |
| O=C(O)c1ccc(S(=O)(=O)N(Cc2ccc(F)c(C(F)(F)F)c2)c2sc3ccccc3c2Cl)cc1 | 99 |
| CC(C)(O)C1=C(N(Cc2ccc(F)c(C(F)(F)F)c2)S(=O)(=O)c2ccccc2)S(=O)(=O)c2ccccc21 | 101 |

A: O=C(O)c1ccc(S(=O)(=O)N(Cc2ccc(F)c(C(F)(F)F)c2)c2sc3ccccc3c2Br)c(F)c1
B: N#Cc1cccc(S(=O)(=O)N(Cc2ccc(F)c(C(F)(F)F)c2)c2cc3ccccc3s2)c1
Exercise: Please tell me which of the two, A or B , has the higher reported inhibition at 0.2 µM value. Label of pick, please.
Solution: A
(A: 102%, B: 29%)

----------
- TEST TARGET: canine TRPM8 (Canis lupus familiaris, UniProt Q1A7N1)
- PROTOCOL SUMMARY: In Vitro Canine TRPM8 Functional Assay (Ca2+ fluorescence, icilin activation)
- Type: cell-based
- RECORDED CONDITIONS: compound at 0.2 μM; canine TRPM8, icilin activation; read-out: % Inh @ 0.2
EXPERIMENTAL ENDPOINT: inhibition at 0.2 µM (%)

Known inhibition at 0.2 µM results, listed for orientation:
| COMPOUND | inhibition at 0.2 µM / % |
| --- | --- |
| COC(=O)CN(c1sc2ccccc2c1C)S(=O)(=O)c1ccccc1 | 101 |
| O=C(O)c1ccc(S(=O)(=O)N(CC2CCCC2)c2sc3ccccc3c2Br)cc1 | 90 |
| COC(=O)c1ccccc1S(=O)(=O)N(Cc1ccc(F)c(C(F)(F)F)c1)c1cc2ccccc2s1 | 91 |
| COC(=O)c1ccc(S(=O)(=O)N(CCCCC(F)(F)F)c2sc3ccccc3c2C)cc1 | 103 |
| O=c1[nH]c(-c2ccc(S(=O)(=O)N(CCCCC(F)(F)F)c3sc4ccccc4c3Br)cc2)no1 | 100 |

1: COC(=O)c1ccc(S(=O)(=O)N(CCCC(F)(F)F)c2sc3ccccc3c2C)cc1
2: Cc1c(N(CCCCC(F)(F)F)S(=O)(=O)C(F)(F)F)sc2ccccc12
Exercise: Please tell me which of the two, 1 or 2 , has the higher reported inhibition at 0.2 µM value. Label of pick, please.
Solution: 1

----------
- TEST TARGET: UniProtKB Q1A7N1
- PROTOCOL SUMMARY: In Vitro Canine TRPM8 Functional Assay (Ca2+ fluorescence, icilin activation)
- Assay type: cell-based
- RECORDED CONDITIONS: HEK293 cells stably expressing canine TRPM8; icilin activation; eight-point dose-response; read-out: IC50
EXPERIMENTAL ENDPOINT: IC50 (nM)

P: O=S(=O)(CC(F)(F)F)N(Cc1ccc(F)c(C(F)(F)F)c1)c1sc2ccccc2c1Br
Q: Cc1c(N(Cc2cccc(C(F)(F)F)c2)S(=O)(=O)c2ccc(C(=O)O)cc2)sc2ccccc12
R: COC(=O)CN(c1sc2ccccc2c1Br)S(=O)(=O)c1ccccc1
S: CCCCN(c1sc2ccccc2c1C)S(=O)(=O)c1ccc(C(=O)O)cc1F
T: CSCCN(c1sc2ccccc2c1C)S(=O)(=O)c1ccccc1
Exercise: Rank descending by IC50: all 5 molecules from above. # the answer lists labels in the order requested
Solution: R, P, T, S, Q
(R: 38 nM, P: 23 nM, T: 15 nM, S: 7.6 nM, Q: 1 nM)

----------
- TEST TARGET: canine TRPM8 (Canis lupus familiaris, UniProt Q1A7N1)
- PROTOCOL SUMMARY: In Vitro Canine TRPM8 Functional Assay (Ca2+ fluorescence, icilin activation)
- Assay type: cell-based
- RECORDED CONDITIONS: compound at 0.2 μM; canine TRPM8, icilin activation; read-out: % Inh @ 0.2
EXPERIMENTAL ENDPOINT: inhibition at 0.2 µM (%)

| COMPOUND | inhibition at 0.2 µM (%) |
| --- | --- |
| CC(C)c1c(N(CCCCC(F)(F)F)S(=O)(=O)c2ccc(C(=O)O)cc2)sc2ccccc12 | 104 |
| O=C(O)c1ccc(S(=O)(=O)N(CCCC(F)(F)F)c2sc3ccccc3c2Cl)cc1 | 105 |
| CCCCN(c1sc2ccccc2c1C(C)(C)O)S(=O)(=O)c1ccc(Br)cc1 | 100 |
| O=c1[nH]c(-c2ccc(S(=O)(=O)N(Cc3ccc(F)c(C(F)(F)F)c3)c3sc4ccccc4c3Br)cc2)no1 | 101 |
| Cc1c(N(CCCC(F)(F)F)S(=O)(=O)c2ccc(Oc3cccnc3)cc2)sc2ccccc12 | 77 |
| Cc1c(N(CCOC(C)(C)C)S(C)(=O)=O)sc2ccccc12 | 85 |
| Cc1c(N(CCC2CC2)S(=O)(=O)c2ccccc2)sc2ccccc12 | 101 |
| CCS(=O)(=O)N(Cc1ccc(F)c(F)c1)c1sc2ccccc2c1C(C)O (centres unmarked) | 92 |

----------
- TEST TARGET: canine TRPM8 (Canis lupus familiaris, UniProt Q1A7N1)
- PROTOCOL SUMMARY: In Vitro Canine TRPM8 Functional Assay (Ca2+ fluorescence, icilin activation)
- Format: cell-based
- RECORDED CONDITIONS: HEK293 cells stably expressing canine TRPM8; icilin activation; eight-point dose-response; read-out: IC50
EXPERIMENTAL ENDPOINT: IC50 (nM)

Known IC50 results, listed for orientation:
| COMPOUND | TEST TARGET | VAL |
| --- | --- | --- |
| COc1ccc(S(=O)(=O)N(CCCC(F)(F)F)c2sc3ccccc3c2C)c2cccnc12 [Compound 356] | canine TRPM8 (Canis lupus familiaris, UniProt Q1A7N1) | 41.6 |
| Cc1c(N(CCOC(C)(C)C)S(=O)(=O)c2ccc(C(=O)O)cc2)sc2ccccc12 [Compound 401] | canine TRPM8 (Canis lupus familiaris, UniProt Q1A7N1) | 5 |

A: CC(C)c1c(N(CCCCC(F)(F)F)S(=O)(=O)c2ccc(C(=O)O)cc2)sc2ccccc12 [Compound 568]
B: Cc1c(N(Cc2ccc(F)c(C(F)(F)F)c2)S(=O)(=O)c2ccc3[nH]c(=O)oc3c2)sc2ccccc12 [Compound 66]
Exercise: Which value of IC50 is smaller, the one for A or the one for B ? Label of pick, please.
Solution: A

----------
- TEST TARGET: canine TRPM8 (Canis lupus familiaris)
- PROTOCOL SUMMARY: In Vitro Canine TRPM8 Functional Assay (Ca2+ fluorescence, icilin activation)
- Format: cell-based
- RECORDED CONDITIONS: compound at 0.2 μM; canine TRPM8, icilin activation; read-out: % Inh @ 0.2
EXPERIMENTAL ENDPOINT: inhibition at 0.2 µM (%)

| SMILES STRING | EXPERIMENTAL ENDPOINT | VAL |
| --- | --- | --- |
| O=C(O)c1ccc(S(=O)(=O)N(CCCCC(F)(F)F)c2sc3ccccc3c2Br)cc1 | inhibition at 0.2 µM | 101 |
| CCCCN(c1sc2ccccc2c1C=O)S(=O)(=O)c1ccc(C(=O)OC)cc1 | inhibition at 0.2 µM | 74 |
| O=S1(=O)C(N(Cc2ccc(F)c(C(F)(F)F)c2)S(=O)(=O)c2ccccc2)=C(Br)c2ccccc21 | inhibition at 0.2 µM | 88 |
| Cc1c(N(CCC2CC2)S(=O)(=O)CC(F)(F)F)sc2ccccc12 | inhibition at 0.2 µM | 99.1 |
| Cc1c(N(CCCC(F)(F)F)S(=O)(=O)c2ccc(C(=O)O)cc2)sc2ccccc12 | inhibition at 0.2 µM | 96 |

a: COc1ccc(S(=O)(=O)N(CCCC(F)(F)F)c2sc3ccccc3c2C)c2cccnc12
b: CCS(=O)(=O)N(CC1CC1)c1sc2ccccc2c1C(C)=O
c: Cc1c(N(CCC2CC2)S(=O)(=O)c2ccc(N3CCCCC3)cc2)sc2ccccc12
Exercise: List these items ordered by inhibition at 0.2 µM, big to small. # the answer lists labels in the order requested
Solution: a, c, b

----------
- TEST TARGET: canine TRPM8 (Canis lupus familiaris, UniProt Q1A7N1)
- PROTOCOL SUMMARY: In Vitro Canine TRPM8 Functional Assay (Ca2+ fluorescence, icilin activation)
- Format: cell-based
- RECORDED CONDITIONS: 0.2 μM compound; HEK293 cells stably expressing canine TRPM8, icilin activation; read-out: % Inh @ 0.2
EXPERIMENTAL ENDPOINT: inhibition at 0.2 µM (%)

| COMPOUND | VAL |
| --- | --- |
| Cc1c(N(CCC2CC2)S(=O)(=O)c2ccc(-c3noc(=O)[nH]3)nc2)sc2ccccc12 [Compound 807] | 103 |

a: Cc1c(N(Cc2ccc(F)cc2)S(=O)(=O)c2ccc(F)c(F)c2)sc2ccccc12 [Compound 826]
b: COC(=O)c1cccc(S(=O)(=O)N(Cc2ccc(F)c(C(F)(F)F)c2)c2sc3ncccc3c2Cl)c1 [Compound 816]
c: CCS(=O)(=O)N(Cc1ccnc(F)c1)c1cc2ccccc2s1 [Compound 847]
Exercise: With regard to inhibition at 0.2 µM, arrange the entries in ascending order, please. # the answer lists labels in the order requested
Solution: b, c, a
(b: 15%, c: 33%, a: 97%)

a: Cc1c(N(Cc2ccc(OC(F)(F)F)cc2)S(=O)(=O)c2ccc(-c3noc(=O)[nH]3)nc2)sc2ccccc12 [Compound 808]
b: CCS(=O)(=O)N(Cc1c(F)cnc(F)c1F)c1sc2ccccc2c1C [Compound 840]
c: COC(=O)c1ccc(S(=O)(=O)N(CCF)c2cc3ccccc3s2)cc1 [Compound 843]
Exercise: With regard to inhibition at 0.2 µM, arrange the entries in ascending order, please. # the answer lists labels in the order requested
Solution: c, b, a

I: Cc1c(N(CCCF)S(=O)(=O)c2ccc(C(=O)O)cc2)sc2ccccc12 [Compound 824]
II: CCS(=O)(=O)N(Cc1ccnc(F)c1)c1sc2ccccc2c1C(C)=O [Compound 848]
III: O=S(=O)(c1ccccc1)N(CCF)c1cc2ccccc2s1 [Compound 844]
Exercise: With regard to inhibition at 0.2 µM, arrange the entries in ascending order, please. # the answer lists labels in the order requested
Solution: III, II, I
(III: 31%, II: 68%, I: 98%)

P: CCS(=O)(=O)N(Cc1ccc(F)c(OC)c1)c1cc2ccccc2s1 [Compound 828]
Q: O=C(O)c1ccc(S(=O)(=O)N(CCC(F)(F)F)c2sc3ncccc3c2Cl)cc1 [Compound 815]
Exercise: Please tell me which of the two, P or Q , has the higher reported inhibition at 0.2 µM value. Label of pick, please.
Solution: P
